- method: self-splicing fitness, log relative to wild type (ln ratio); higher = more splicing; Tetrahymena group I intron in knt gene, E. coli kanamycin selection, DiMSum; sequences stand for … in CUCUCU…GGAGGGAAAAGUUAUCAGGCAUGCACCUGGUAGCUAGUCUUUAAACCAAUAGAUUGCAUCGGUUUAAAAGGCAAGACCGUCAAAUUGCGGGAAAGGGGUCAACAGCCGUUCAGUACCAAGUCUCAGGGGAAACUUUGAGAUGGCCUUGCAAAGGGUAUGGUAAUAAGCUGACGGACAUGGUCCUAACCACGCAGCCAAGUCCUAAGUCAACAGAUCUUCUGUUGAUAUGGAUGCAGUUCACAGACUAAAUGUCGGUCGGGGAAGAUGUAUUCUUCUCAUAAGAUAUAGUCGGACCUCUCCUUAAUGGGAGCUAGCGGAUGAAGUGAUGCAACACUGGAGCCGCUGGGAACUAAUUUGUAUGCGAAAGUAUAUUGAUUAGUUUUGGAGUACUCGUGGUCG;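 note: selection with 25 µg/mL kanamycin versus none on LB agar overnight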
- condition_info: 37 °C
Labels assigned by self-splicing fitness (ln) range: bucket A (below -2), bucket B (-2 to below -1), bucket C (-1 or more)

polymer_sequence	category
CCCCAGCAAUAUUACGGCUC	bucket A
GACAAGCAAUAUUACGGAAC	bucket B
AUUAAGCAAUAUUACGUGAU	bucket B
UCAUAGCAAUAUUACGGGGA	bucket C
GUACAGCAAUAUUACGCUGG	bucket C
AAGCAGCAAUAUUACGGACG	bucket C
AGCCAGCAAUAUUACGAAGA	bucket B
ACGGAGCAAUAUUACGAGCU	bucket A
UCAAAGCAAUAUUACGUGUU	bucket A
GUGAAGCAAUAUUACGCUGA	bucket B
UUCGAGCAAUAUUACGGACG	bucket B
UUUAAGCAAUAUUACGGGUC	bucket A
CAAUAGCAAUAUUACGUCUC	bucket A
UGAAAGCAAUAUUACGACCA	bucket C
UGAUAGCAAUAUUACGAGUA	bucket B
